- System: HCC-2998 colon
- MEASUREMENT PROTOCOL: NCI-60 one-dose screen, 48 h (100 = growth as untreated, 0 = no growth, -100 = all killed)
- MEASUREMENT SETUP: 10 µM unless noted
The panel holds about 83,000 compounds, 20% with a hit somewhere; the sample as a whole holds those more often.
Label satisfied when growth < 90%; otherwise not satisfied.

>  <RECORD SMILES>
C/C(=N\Nc1nc(C)cs1)c1cc2ccccc2o1

>  <LABEL CLASS>
not satisfied

$$$$

Attention now shifts to the item below.
Query: Strictly below 90% in growth? COc1cccc(/C=C/C(=O)c2cc3c(N)c(C(=O)Nc4ccccc4C)sc3nc2C)c1
Reply: satisfied

###

- System: OVCAR-3 ovarian
- MEASUREMENT PROTOCOL: NCI-60 one-dose screen, 48 h
- MEASUREMENT SETUP: 10 µM unless noted
- Experimental: Growth inhibition of the OVCAR-3 human tumor cell line is measured as a screen for anti-cancer activity. Cells are grown in 96 well plates and exposed to the test compound for 48 hours. Compounds are tested at a single concentration, which is 10^-5 M for most compounds. The reported endpoint is percent growth (GI% or GIPRCNT), where numbers from 0 - 100% represent growth inhibition, and numbers from -100% - 0 represent cell death. For example, a value of 40 represents 60% growth inhibition. […]
Compounds without any hit were thinned out: in the full panel of roughly 83,000, 20% have a hit. The source made the active and inactive calls. Rule for the calls: active = growth percent below 10; inactive = the rest.
Please state which outcome applies, choosing from 1 (yes) (active), 0 (no) (inactive)

Previously resolved entries follow.
>  <RECORD SMILES>
NC(=O)c1ccc(NC(=O)c2oc3ccccc3c2-c2cnn(-c3ccccc3)c2)cc1

>  <LABEL CLASS>
1 (yes)

$$$$
>  <RECORD SMILES>
CC(C)(CO)N(CCO)CCO

>  <LABEL CLASS>
0 (no)

$$$$
>  <RECORD SMILES>
CCOc1ccc(/C=N\N=C\c2ccc(OCC)cc2)cc1

>  <LABEL CLASS>
0 (no)

$$$$
>  <RECORD SMILES>
O=C(Nc1ccccc1)c1sc(-c2ccccc2)cc1O

>  <LABEL CLASS>
0 (no)

$$$$
>  <RECORD SMILES>
COc1cc(C#Cc2ccc(=O)oc2C#Cc2ccccc2)cc(OC)c1OC

>  <LABEL CLASS>
0 (no)

$$$$

Attention now shifts to the item below.
Query: Per the assay record, what outcome was assigned to Cn1cc(C(=O)c2nc(-c3c[nH]c4ccc(Br)cc34)no2)c2cc(Br)ccc21 ?
Reply: 0 (no)

###

- Tested on: OVCAR-4 ovarian
- MEASUREMENT PROTOCOL: NCI-60 one-dose screen, 48 h (100 = growth as untreated, 0 = no growth, -100 = all killed)
- MEASUREMENT SETUP: 10 µM unless noted
Compounds without any hit were thinned out: in the full panel of roughly 83,000, 20% have a hit. Activity calls are given as the source filed them. Rule for the calls: active = growth percent below 10; inactive = the rest.
OUTCOME MEASURE: growth

Use the examples below as a reference point.
>  <MOLECULE>
O=c1oc2c(cnc3ccccc32)cc1-c1cccs1

>  <growth>
100% (inactive)

$$$$
>  <MOLECULE>
CN1CCN(Cc2ccc(NC(=O)c3cncc(C#Cc4cncc5ncccc45)c3)cc2C(F)(F)F)CC1

>  <growth>
17.3% (inactive)

$$$$
>  <MOLECULE>
CC(C)c1ccc(-n2c(=S)[nH]c3sc4c(c3c2=O)CCC(=O)C4)cc1

>  <growth>
46.5% (inactive)

$$$$

Query: Field request: growth | item: CCN1C(=O)N(CC)C2C1NN=c1s/c(=C\c3ccccc3Br)c(=O)n12 (stereo not drawn)
Reply: 49.7% (inactive)

Query: Continue with COc1ccc2c(c1)c(-c1nonc1-c1c[nH]c3ccc(Br)cc13)cn2C
Reply: 55.1% (inactive)

Query: Continue with CN1CCCc2cc(/C=C3/SC(=S)N(CCc4ccc(O)cc4)C3=O)ccc21
Reply: 87.2% (inactive)

Query: Continue with CNC(=O)c1c(NC(=O)c2ccc(C(C)(C)C)cc2)sc2c(CN(C)C)c(O)ccc12
Reply: 67.5% (inactive)

Query: Continue with N#C/C(=C\c1ccc(Cl)cc1Cl)C(=O)Nc1ncc(Cc2ccc(Cl)c(Cl)c2)s1
Reply: 82.8% (inactive)

Query: Continue with Oc1c(I)cc(-c2nc3ccccc3s2)cc1CN(Cc1ccccn1)Cc1ccccn1
Reply: 31.9% (inactive)

Query: Continue with CCCn1c(=S)sc2c1nc(C)n1c(Nc3ccccc3)nnc21
Reply: 42.8% (inactive)

Reference source for all entries: PubChem BioAssay (NCI)
